Structures can show the parent of a compound that is named as a salt.
parameter: melting point

Take a look at these entries with their results.
O=c1cc(-c2cccnc2)nc2n(CCCc3ccccc3)ccn12 (as salt: hydrochloride) :: 184 to 185 °C
O=c1cc(-c2ccncc2)nc2n(CC=CC(F)(F)F)ccn12 :: 187 to 188 °C
O=c1cc(-c2ccncc2)nc2n(CCCCc3ccccc3)ccn12 (as salt: hydrochloride) :: 206 to 208 °C
O=c1cc(-c2ccncc2)nc2n(C=CCC(F)(F)F)ccn12 :: 221 to 222 °C

*Q* Value lookup for melting point; key = O=C(CCn1ccn2c(=O)cc(-c3ccncc3)nc12)c1ccccc1 (as salt: hydrochloride)
*A* 208 to 211 °C

*Q* Value lookup for melting point; key = O=c1cc(-c2ccncc2)nc2n(CC[C@H](O)C(F)(F)F)ccn12
*A* 220 to 222 °C
